- ASSAY_SUMMARY: ATG_PXRE_CIS: Attagene CIS-FACTORIAL HepG2 Assay for human Pregnane X Receptor Element (PXRE) (AID 2282957)
- TEST_CONDITIONS: HepG2 Attagene CIS-FACTORIAL PXRE reporter, mRNA; actives raise or lower the signal
The source made the active and inactive calls. Rule for the calls: active = hit-call score of the fitted dose curve at least 0.9, where 1 is the maximum; inactive = score below 0.9.
Write down one outcome, taken from t for active, f for inactive

Example results:
O=C(OCCCCCCOC(=O)c1ccccc1)c1ccccc1	f
NC(=O)c1nc(-c2cccc(-c3cc(F)ccc3OCC(F)(F)C(F)(F)F)c2)n[nH]1	t
CCCOC(=O)c1cc(O)c(O)c(O)c1	f
CN(C[C@@H](CC[N+]12CCC(C3CCCCC3)(CC1)CC2)c1ccc(Cl)c(Cl)c1)C(=O)c1cc(C(F)(F)F)cc(C(F)(F)F)c1	f
O=C(Nc1ccc(Cl)cc1)Nc1ccc(Cl)c(Cl)c1	t

Below: the item to evaluate.
What call does the record list for `c1ccc2ccccc2c1` ? f
